Target: Cytochrome P450 1A2 (Homo sapiens);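 further: PubChem cytochrome P450 panel assay, CYP1A2 panel member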
Sequence (P05177 whole entry): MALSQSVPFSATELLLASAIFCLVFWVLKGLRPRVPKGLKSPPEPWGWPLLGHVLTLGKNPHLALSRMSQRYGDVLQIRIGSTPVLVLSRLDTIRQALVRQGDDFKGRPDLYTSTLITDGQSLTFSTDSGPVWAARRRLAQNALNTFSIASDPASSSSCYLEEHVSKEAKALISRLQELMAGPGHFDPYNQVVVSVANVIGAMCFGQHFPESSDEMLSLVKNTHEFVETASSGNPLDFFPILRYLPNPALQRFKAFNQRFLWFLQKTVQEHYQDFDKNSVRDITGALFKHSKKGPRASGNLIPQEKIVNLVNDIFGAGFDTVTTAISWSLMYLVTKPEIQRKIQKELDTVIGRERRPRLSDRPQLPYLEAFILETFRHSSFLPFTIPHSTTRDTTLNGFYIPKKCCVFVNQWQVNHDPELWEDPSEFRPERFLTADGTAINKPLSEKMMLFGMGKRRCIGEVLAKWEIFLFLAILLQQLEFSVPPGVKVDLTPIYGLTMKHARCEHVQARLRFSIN
Measurement kind: AC50

Guide cases for AC50, answers given:
| Compound | Target entity | AC50 |
| --- | --- | --- |
| CC1CCC(NC(=O)CC(C)(C)Cc2nc(O)c3ccccc3n2)CC1 (stereo not drawn) | Cytochrome P450 1A2 (Homo sapiens) | 22.4 µM (inconclusive) |
| Cc1cccc2nc(C(F)(F)F)nc(=O)n12 | Cytochrome P450 1A2 (Homo sapiens) | 0.0316 µM (inconclusive) |
| O=C(c1ccco1)N1CCC2(CC1)CN(c1ccc(-c3ccccc3)cc1)C2 | Cytochrome P450 1A2 (Homo sapiens) | 1 µM (inconclusive) |

stdin: Give recorded AC50 with Cytochrome P450 1A2 (Homo sapiens) for the following compound: CCOC(=O)C1=C(C)N=C2SC(C(=O)OC)=CC(=O)N2C1c1ccc(F)cc1 (stereo not drawn)
stdout: 31.6 µM (inconclusive)

stdin: Give recorded AC50 with Cytochrome P450 1A2 (Homo sapiens) for the following compound: `Cn1c(=O)cc(OCC(=O)NCc2cccnc2)c2ccccc21`
stdout: 1.58 µM (inconclusive)

stdin: Give recorded AC50 with Cytochrome P450 1A2 (Homo sapiens) for the following compound: `COc1ncc2ncc(=O)n(CCC#N)c2n1`
stdout: 20 µM (inconclusive)

stdin: Give recorded AC50 with Cytochrome P450 1A2 (Homo sapiens) for the following compound: COc1cc(OC)c(C2C(C(=O)O)c3ccccc3C(=O)N2C)cc1OC (stereo not drawn)
stdout: 31.6 µM (inconclusive)

stdin: Give recorded AC50 with Cytochrome P450 1A2 (Homo sapiens) for the following compound: `COc1ccc(-c2nc3cnc(OC)nc3n(-c3ccc(OC)cc3)c2=O)cc1`
stdout: 0.316 µM (inconclusive)
